Assay: small-molecule microarray binders of probe aCHRDL2, primary screen, biochemical, biotinylated probe, 635/667 nm fluorescence (AID 1100)
Details: higher = more signal
Mark 1 for reported composite z-score of -0.4 or greater; mark 0 for anything smaller.

Reported composite z-score reaches at least -0.4 for CCOC(=O)CCN1C(=O)[C@H]2[C@H]3[C@H](O)[C@H](O)CC(=NO[C@@H]4O[C@H](CO)[C@@H](O)[C@H](O)[C@H]4O)[C@H]3CC[C@H]2C1=O ?
1

Reported composite z-score reaches at least -0.4 for COC(=O)[C@H](C)NC(=O)CCC1CC(OC(=O)NCCc2ccc(F)cc2)CC2(CCCC(COC(=O)NCCOc3ccccc3)O2)O1 (stereo partly drawn) ?
1

Reported composite z-score reaches at least -0.4 for O=C1[C@H]2[C@H]3[C@H](O)[C@H](O)CC(=NO[C@@H]4O[C@H](CO)[C@@H](O)[C@H](O)[C@H]4O)[C@@H]3CC[C@H]2C(=O)N1c1cccc(Oc2ccccc2)c1 ?
0

Reported composite z-score reaches at least -0.4 for CO[C@H]1COC(=O)CCC[C@H](C)[C@@H](OC)COC(=O)CC=C[C@@H]1C ?
0

Reported composite z-score reaches at least -0.4 for CC(C)[C@@H](OCc1ccccc1)[C@H](C)CON=C1[C@H]2CCn3c(=O)n(-c4ccccc4)c(=O)n3[C@H]2[C@H](O)[C@@H]2O[C@H]12 ?
0

Reported composite z-score reaches at least -0.4 for C[C@H]1CC[C@H]2C(=O)O[C@H](CO)CN2[C@@H]1c1ccc(Br)cc1 ?
1

Reported composite z-score reaches at least -0.4 for CCOC(=O)[C@H](CC(C)C)NC(=O)CCC1CC(OC(=O)NCc2ccc3c(c2)OCO3)CC2(CCCC(COC(=O)NCCOC)O2)O1 (stereo partly drawn) ?
1

Reported composite z-score reaches at least -0.4 for CC(CCN1CCCc2nc(C)c(C)cc21)=NOC[C@@H](C)[C@H](OCc1ccccc1)C(C)C ?
0

Reported composite z-score reaches at least -0.4 for CO[C@@H]1C=CCC(=O)N[C@@H](C)C(=O)OC[C@@H](OC)[C@H](C)C=CCC(=O)OC[C@H]1C ?
0

Reported composite z-score reaches at least -0.4 for CC(CCN1CCCCc2nc(C)c(C)cc21)=NO[C@H](C)c1cn([C@@H]2COC[C@H]2O)nn1 ?
0

Reported composite z-score reaches at least -0.4 for COc1ccc(COC(=O)NN=C2C[C@@H](O)[C@@H](O)[C@@H]3[C@@H]4C(=O)N(Cc5ccc6c(c5)OCO6)C(=O)[C@@H]4CC[C@H]23)cc1 ?
1

Reported composite z-score reaches at least -0.4 for COC(=O)CC=C[C@@H](C)[C@@H](C=NOC[C@@H](O)COCc1ccco1)NS(=O)(=O)c1ccc(C)cc1 ?
0

Reported composite z-score reaches at least -0.4 for O=C1[C@H]2[C@H]3[C@H](O)[C@H](O)CC(=NO[C@@H]4O[C@H](CO)[C@@H](O)[C@H](O)[C@H]4O)[C@@H]3CC[C@H]2C(=O)N1C[C@@H]1CCCO1 ?
0

Reported composite z-score reaches at least -0.4 for COC(=O)[C@H](C)NC(=O)CC=C[C@@H](C)[C@@H]1C=C[C@H](O)[C@@H](CO)O1 ?
0

Reported composite z-score reaches at least -0.4 for C[C@@H]1C=CCC(=O)OC[C@H](C)C(=O)N[C@@H](Cc2ccccc2)C(=O)OC1 ?
0

Reported composite z-score reaches at least -0.4 for COC(=O)CC=C[C@@H](C)[C@@H](C=NOC(C)CN1CCCCc2nc(C)c(C)cc21)OC (stereo partly drawn) ?
0

Reported composite z-score reaches at least -0.4 for O=C1[C@H]2[C@H]3[C@H](O)[C@H](O)CC(=NOC[C@@H](O)COCc4ccco4)[C@@H]3CC[C@H]2C(=O)N1C1CCCCC1 ?
0

Reported composite z-score reaches at least -0.4 for CC(C)CON=C1C[C@@H](O)[C@@H](O)[C@@H]2[C@@H]3C(=O)N(Cc4ccccc4)C(=O)[C@@H]3CC[C@H]12 ?
0

Reported composite z-score reaches at least -0.4 for CC(C)CON=C1C[C@@H](O)[C@@H](O)[C@@H]2[C@@H]3C(=O)N(Cc4ccc5c(c4)OCO5)C(=O)[C@@H]3CC[C@@H]12 ?
1

Reported composite z-score reaches at least -0.4 for CC(CCC(=O)OC[C@H]1O[C@H](C#Cc2ccccc2)C=C[C@@H]1Oc1ccc(C)cc1)=NOC(C)CN1CCCc2nc(C)c(C)cc21 (stereo partly drawn) ?
1

Reported composite z-score reaches at least -0.4 for COC(=O)[C@H](C)NC(=O)CCC1CC(OC(=O)NCc2ccc3c(c2)OCO3)CC2(CCCC(COC(=O)NCCC(C)C)O2)O1 (stereo partly drawn) ?
0

Reported composite z-score reaches at least -0.4 for CCOC(=O)CCN1C(=O)[C@H]2[C@H]3[C@H](O)[C@H](O)CC(=NNC(=O)OCC)[C@H]3CC[C@H]2C1=O ?
0

Reported composite z-score reaches at least -0.4 for COc1ccc(COC(=O)NN=C2C[C@@H](O)[C@@H](O)[C@@H]3[C@@H]4C(=O)N(C[C@@H]5CCCO5)C(=O)[C@@H]4CC[C@H]23)cc1 ?
1

----------
Assay: A549 cell viability effects, profiling panel, calcein-AM fluorescence, 48 h, basal (AID 1162); note: test concentration not given here
Conditions: higher = more signal
METRIC_NAME: z-score
Answer with a bare number; do not write a unit.

Reported z-score for COc1cccc([C@H]2Oc3ccc(OC)cc3C(=NOCC[C@@H]3C=C[C@H](OC(C)=O)[C@@H](COC(C)=O)O3)[C@@H]2O)c1 was -0.34

Reported z-score for CCN1C(=O)[C@H]2[C@H]3[C@H](O)[C@H](O)CC(=NOC[C@@H](O)COCc4ccco4)[C@H]3CC[C@H]2C1=O was -0.199

Reported z-score for O=C1C[C@H](c2ccccc2)[C@H](c2ccc(Br)cc2)O1 was 1.43

----------
System: Sonic hedgehog protein (Shh)
Assay: small-molecule binders of Shh protein, primary screen, biochemical, small-molecule microarray, 635/667 nm fluorescence (AID 1151);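 note: Shh protein binding to compounds spotted on small-molecule microarray slides; score combines spot fluorescence intensity with signal-to-noise across triplicate slides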
Settings: small-molecule microarray binding, 635 nm fluorescence; higher = more signal
METRIC_NAME: composite z-score

Reported composite z-score for CCCCOC(OCCCC)C(O)CSc1ccc2ccccc2c1 (centres undefined) was 0.789

Reported composite z-score for CC(C)CON=C1C[C@@H](O)[C@@H](O)[C@@H]2[C@@H]3C(=O)N(Cc4ccccc4)C(=O)[C@@H]3CC[C@H]12 was 0.503

Reported composite z-score for CC#CCOCCC=C1c2ccccc2[C@@H](OC)[C@@H]1C was 0.584

Reported composite z-score for CCOC(=O)[C@H](CC(C)C)NC(=O)CCC1CC(OC(=O)NCc2ccc3c(c2)OCO3)CC2(CCCC(COC(=O)NCCc3ccc(Cl)cc3)O2)O1 (some centres undefined) was 1.86

Reported composite z-score for COc1ccc(O[C@H]2C=C[C@@H](c3ccccc3)O[C@@H]2COC(=O)CCC(C)=NOC[C@@H](O)COCc2ccco2)cc1 was -1.09

Reported composite z-score for COc1ccc(COC(=O)NN=C2C[C@@H](O)[C@@H](O)[C@@H]3[C@@H]4C(=O)N(C(C)(C)C)C(=O)[C@@H]4CC[C@@H]23)cc1 was 0.612

Reported composite z-score for CC(CCN1CCc2nc(-c3ccccc3)c(-c3ccccc3)cc2C1)=NO[C@H](C)c1cn([C@H](CO)Cc2ccccc2)nn1 was 0.565

Reported composite z-score for C[C@@H]1CC[C@H]2C(=O)OC(Cc3ccccc3)CN2[C@H]1c1ccc(Br)cc1 (some centres undefined) was 0.513

Reported composite z-score for COC(=O)CC=C[C@@H](C)[C@@H](C=NOC[C@@H](O)[C@H]1O[C@@H]2OC(C)(C)O[C@@H]2[C@H]1O)OC was 0.867

----------
Assay: modulators of S6 phosphorylation in cells, primary screen, cell-based, A549, cytoblot, luminescence, serum-stimulated (AID 1158);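 note: serum-stimulated A549 lung adenocarcinoma cells; signal is phosphorylated S6 detected by cytoblot immunostaining with HRP secondary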
Details: A549 phospho-S6 cytoblot, 5 h, higher = more signal
Mark true for reported z-score of -0.3 or greater; mark false for anything smaller.

Reported z-score reaches at least -0.3 for CCN(CC)CC(O)CN1CCCCc2nc(C)c(C)cc21 (stereo not given) ?
true

Reported z-score reaches at least -0.3 for CCCC[C@H]1CN2[C@@H](CC[C@@H](C)[C@@H]2c2ccc(Br)cc2)C(=O)O1 ?
false

Reported z-score reaches at least -0.3 for CCOC(=O)NN=C1C[C@@H](O)[C@@H](O)[C@@H]2[C@@H]3C(=O)N(C[C@@H]4CCCO4)C(=O)[C@@H]3CC[C@H]12 ?
true

Reported z-score reaches at least -0.3 for O=C1[C@H]2[C@H]3[C@H](O)[C@H](O)CC(=NOCc4ccccc4)[C@@H]3CC[C@H]2C(=O)N1c1cccc(Oc2ccccc2)c1 ?
true

Reported z-score reaches at least -0.3 for CCOC(=O)[C@H](CC(C)C)NC(=O)CCC1CC(OC(=O)NCCc2ccc(F)cc2)CC2(CCCC(COC(=O)NCc3cccc(C(F)(F)F)c3)O2)O1 (stereo not given in full) ?
true
